Here, each record is paired with measured drug sensitivity score data.
test system: BT-474; experiment: drug sensitivity score (DSS), CellTiter-Glo (DSS (AUC-based score)); higher = stronger drug effect (viability inhibition or cytotoxicity); extreme values may be limits of the assay; conditions: incubation time: 72 h
READOUT LABEL: drug sensitivity score

COMPOUND: CC(=O)O[C@H]1C(=O)[C@@]2(C)[C@H]([C@H](OC(=O)c3ccccc3)[C@]3(O)C[C@H](OC(=O)[C@H](O)[C@@H](NC(=O)c4ccccc4)c4ccccc4)C(C)=C1C3(C)C)[C@]1(OC(C)=O)CO[C@@H]1C[C@@H]2O [Paclitaxel]
ASSAYED TARGET: BT-474
MEAS VALUE: 17.2
--
COMPOUND: O=c1[nH]cc(F)c(=O)[nH]1 [Fluorouracil]
ASSAYED TARGET: BT-474
MEAS VALUE: 0
--
COMPOUND: Cn1cnc2c(F)c(Nc3ccc(Br)cc3F)c(C(=O)NOCCO)cc21 [MEK-162]
ASSAYED TARGET: BT-474
MEAS VALUE: 2.42
--
COMPOUND: C[C@@]1(C(=O)Nc2ccc(F)nc2)CCCN1c1nc(Nc2cc(C3CC3)n[nH]2)c2cccn2n1
ASSAYED TARGET: BT-474
MEAS VALUE: 9.15
--
COMPOUND: COC1=C2C[C@@H](C)C[C@H](OC)[C@H](O)[C@@H](C)/C=C(\C)[C@H](OC(N)=O)[C@@H](OC)/C=C\C=C(/C)C(=O)NC(=CC1=O)C2=O [Geldanamycin]
ASSAYED TARGET: BT-474
MEAS VALUE: 4.34
--
COMPOUND: C#Cc1cccc(Nc2ncnc3cc(OC)c(OCCCCCCC(=O)NO)cc23)c1 [CUDC-101]
ASSAYED TARGET: BT-474
MEAS VALUE: 7.85
--
COMPOUND: Cn1c(=O)c(F)c(Nc2ccc(I)cc2F)c2c(=O)n(C[C@@H](O)CO)cnc21 [TAK-733]
ASSAYED TARGET: BT-474
MEAS VALUE: 6.85
--
COMPOUND: COc1ccc(C2=N[C@@H](c3ccc(Cl)cc3)[C@@H](c3ccc(Cl)cc3)N2C(=O)N2CCNC(=O)C2)c(OC(C)C)c1 [Nutlin-3]
ASSAYED TARGET: BT-474
MEAS VALUE: 0

* * *

tested on: HCC1937; assay: normalised response (% of control), CellTox Green; higher = less cell death (100 = DMSO, 0 = benzethonium chloride kill control); settings: incubation time: 72 h
READOUT LABEL: normalised response

COMPOUND: CCS(=O)(=O)c1cccc(-c2cc(C(=O)NC3CCN(C)CC3)c(C)c3[nH]c4ncc(C)cc4c23)c1 [TAK-901] (10 nM)
MEAS VALUE: 120%
--
COMPOUND: FC(F)c1nc2ccccc2n1-c1nc(N2CCOCC2)nc(N2CCOCC2)n1 [ZSTK474] (10000 nM)
MEAS VALUE: 86.7%
--
COMPOUND: CS(=O)(=O)CCNCc1ccc(-c2ccc3ncnc(Nc4ccc(OCc5cccc(F)c5)c(Cl)c4)c3c2)o1 [Lapatinib] (10 nM)
MEAS VALUE: 90.5%
--
COMPOUND: FC(F)c1nc2ccccc2n1-c1nc(N2CCOCC2)nc(N2CCOCC2)n1 [ZSTK474] (100 nM)
MEAS VALUE: 64.3%
--
COMPOUND: C[C@@H]1CCN(C(=O)CC#N)C[C@@H]1N(C)c1ncnc2[nH]ccc12 [Tofacitinib] (50 nM)
MEAS VALUE: 123%
--
COMPOUND: CC(=O)O[C@H]1C(=O)[C@@]2(C)[C@H]([C@H](OC(=O)c3ccccc3)[C@]3(O)C[C@H](OC(=O)[C@H](O)[C@@H](NC(=O)c4ccccc4)c4ccccc4)C(C)=C1C3(C)C)[C@]1(OC(C)=O)CO[C@@H]1C[C@@H]2O [Paclitaxel] (10 nM)
MEAS VALUE: 86.7%
--
COMPOUND: COc1c(C)cnc(Cn2cnc3c(Cl)nc(N)nc32)c1C [BIIB021] (10000 nM)
MEAS VALUE: 107%
--
COMPOUND: O=c1[nH]cc(F)c(=O)[nH]1 [Fluorouracil] (100 nM)
MEAS VALUE: 103%
--
COMPOUND: C[C@@H]1C=C2C(=O)O[C@@H]3CC[C@H](C1)[C@]23O [Galiellalactone] (50000 nM)
MEAS VALUE: 81.2%
--
COMPOUND: CCOc1cc2ncc(C#N)c(Nc3ccc(OCc4ccccn4)c(Cl)c3)c2cc1NC(=O)/C=C/CN(C)C [Neratinib] (1000 nM)
MEAS VALUE: 95.7%
--
COMPOUND: COC1=CC(c2cc3ccccc3[nH]2)=N/C1=C\c1[nH]c(C)cc1C [Obatoclax] (10000 nM)
MEAS VALUE: 95.4%
--
COMPOUND: COc1ccc(C2=N[C@@H](c3ccc(Cl)cc3)[C@@H](c3ccc(Cl)cc3)N2C(=O)N2CCNC(=O)C2)c(OC(C)C)c1 [Nutlin-3] (100 nM)
MEAS VALUE: 87.5%
--
COMPOUND: COc1ncc(-c2ccc3nccc(-c4ccnnc4)c3c2)cc1NS(=O)(=O)c1ccc(F)cc1F (100 nM)
MEAS VALUE: 90.5%
--
COMPOUND: CC(C)(C)c1cc(NC(=O)Nc2ccc(-c3cn4c(n3)sc3cc(OCCN5CCOCC5)ccc34)cc2)no1 [Quizartinib] (1000 nM)
MEAS VALUE: 96%
--
COMPOUND: C[C@@]1(C(=O)Nc2ccc(F)nc2)CCCN1c1nc(Nc2cc(C3CC3)n[nH]2)c2cccn2n1 (1000 nM)
MEAS VALUE: 93.8%

* * *

Here, each record is paired with measured normalised response data.
tested on: CAL-51; test: normalised response (% of control), CellTox Green; higher = less cell death (100 = DMSO, 0 = benzethonium chloride kill control); details: incubation time: 72 h
READOUT LABEL: normalised response (%)

MOLECULE: FC(F)c1nc2ccccc2n1-c1nc(N2CCOCC2)nc(N2CCOCC2)n1 [ZSTK474] (1000 nM)
ASSAYED TARGET: CAL-51
UOM: %
MEAS VALUE: 92.8
//
MOLECULE: COc1c(C)cnc(Cn2cnc3c(Cl)nc(N)nc32)c1C [BIIB021] (100 nM)
ASSAYED TARGET: CAL-51
UOM: %
MEAS VALUE: 122
//
MOLECULE: CCOc1cc2ncc(C#N)c(Nc3ccc(OCc4ccccn4)c(Cl)c3)c2cc1NC(=O)/C=C/CN(C)C [Neratinib] (10 nM)
ASSAYED TARGET: CAL-51
UOM: %
MEAS VALUE: 110
//
MOLECULE: COc1cccc2c1C(=O)c1c(O)c3c(c(O)c1C2=O)C[C@@](O)(C(C)=O)C[C@@H]3O[C@H]1C[C@H](N)[C@H](O)[C@H](C)O1 [Daunorubicin] (100 nM)
ASSAYED TARGET: CAL-51
UOM: %
MEAS VALUE: 73.5
//
MOLECULE: CCS(=O)(=O)c1cccc(-c2cc(C(=O)NC3CCN(C)CC3)c(C)c3[nH]c4ncc(C)cc4c23)c1 [TAK-901] (100 nM)
ASSAYED TARGET: CAL-51
UOM: %
MEAS VALUE: 53.8
//
MOLECULE: Nc1nccc(-c2c(-c3ccc(F)cc3)ncn2C2CCCCC2)n1 (1000 nM)
ASSAYED TARGET: CAL-51
UOM: %
MEAS VALUE: 86.2

* * *

Here, each record is paired with measured drug sensitivity score data.
tested on: CAL-85-1; assay: drug sensitivity score (DSS), CellTiter-Blue viability (DSS (AUC-based score)); higher = stronger viability inhibition; extreme values may be limits of the assay; conditions: incubation time: 72 h

MOLECULE SMILES: CN1CCN(c2ccc3nc(-c4c(N)c5c(F)cccc5[nH]c4=O)[nH]c3c2)CC1
drug sensitivity score: 0
//
MOLECULE SMILES: CC(C)C[C@H](NC(=O)[C@H](Cc1ccccc1)NC(=O)c1cnccn1)B(O)O
drug sensitivity score: 24.8
//
MOLECULE SMILES: CCCC(CCC)C(=O)O
drug sensitivity score: 0
//
MOLECULE SMILES: CC(=O)O[C@H]1C(=O)[C@@]2(C)[C@H]([C@H](OC(=O)c3ccccc3)[C@]3(O)C[C@H](OC(=O)[C@H](O)[C@@H](NC(=O)c4ccccc4)c4ccccc4)C(C)=C1C3(C)C)[C@]1(OC(C)=O)CO[C@@H]1C[C@@H]2O
drug sensitivity score: 18.3
//
MOLECULE SMILES: COc1cccc2c1C(=O)c1c(O)c3c(c(O)c1C2=O)C[C@@](O)(C(C)=O)C[C@@H]3O[C@H]1C[C@H](N)[C@H](O)[C@H](C)O1
drug sensitivity score: 5.47
